- assay_text: Inhibition of rat microsomal SOAT assessed as reduction in cholesteryl oleate formation from oleoyl co-enzyme A pretreated for 15 mins followed by oleoyl co-enzyme A addition after 10 mins by HPTLC method
pIC50 values by entry
Just the number.

{"columns": ["structure_smiles_string", "measured_number"],
 "data": [
  ["COc1cc(NC(=O)Nc2ccc(-c3sc(C)nc3-c3ccc(F)cc3)cc2)cc(OC)c1OC", 4.898],
  ["CCCCCCCCCCCCNC(=O)Nc1ccc(-c2sc(C)nc2-c2ccc(C)cc2)cc1", 4.914],
  ["CCCCNC(=O)Nc1ccc(-c2nonc2-c2ccc(F)cc2)cc1", 4.908],
  ["CCCCNC(=O)Nc1nc(-c2ccc(OC)cc2)c(-c2ccc(Cl)cc2)s1", 4.2014],
  ["CCc1cccc(CC)c1NC(=O)Nc1ccc(-c2sc(C)nc2-c2ccc(OC)cc2)cc1", 4.3606],
  ["CCCCCCCCCCCCNC(=O)Nc1ccc(-c2nonc2-c2ccc(C)cc2)cc1", 3.909],
  ["CCc1cccc(CC)c1NC(=O)Nc1ccc(-c2sc(C)nc2-c2ccc(Cl)cc2)cc1", 5.3936],
  ["CCCCNC(=O)Nc1ccc(-c2sc(C)nc2-c2ccc(C)cc2)cc1", 5.614],
  ["CCCCNC(=O)Nc1nc(-c2ccc(OC)cc2)c(-c2ccc(NC(C)=O)cc2)s1", 4.384]
]}

Input line: For CCc1cccc(CC)c1NC(=O)Nc1ccc(-c2nonc2-c2ccc(F)cc2)cc1 , what is its reported pIC50?
Output line: 5.011
